conditions: 323.15 K; 101.33 kPa; Liquid
Structures can show the parent of a compound that is named as a salt.
ENDPOINT_LABEL: mass density (kg/m3)

COMPOUND	QUANTITY_UNIT	mass density
CCCCCCOC(=O)CCC [hexyl butanoate]	kg/m3	830.78
CCOC(=O)C(C)CC (configuration not stated) [ethyl 2-methylbutanoate]	kg/m3	846.74
CCC/C=C/COC(C)=O [(E)-2-hexenyl acetate]	kg/m3	876.14
CC/C=C\CCOC(C)=O [(Z)-3-hexenyl acetate]	kg/m3	877.89
CCOC=O [ethyl methanoate]	kg/m3	882.14
CCOC(=O)CC(C)C [ethyl 3-methylbutanoate]	kg/m3	846.24
CC/C=C\CCOC(=O)C(C)C [cis-3-hexenyl isobutyrate]	kg/m3	857.38
CCCCCC(=O)OCC [ethyl hexanoate]	kg/m3	856.42
CCCCCCOC(C)=O [hexyl ethanoate]	kg/m3	844.21
CCOC(C)=O [ethyl acetate]	kg/m3	870.39
CC/C=C\CCOC=O [(Z)-3-hexenyl formate]	kg/m3	898.99
CCCC(=O)OCCC(C)C [3-methylbutyl butanoate]	kg/m3	845.78
